assay: self-splicing fitness, log relative to wild type (ln ratio); higher = more splicing; Tetrahymena group I intron in knt gene, E. coli kanamycin selection, DiMSum; sequences stand for … in CUCUCU…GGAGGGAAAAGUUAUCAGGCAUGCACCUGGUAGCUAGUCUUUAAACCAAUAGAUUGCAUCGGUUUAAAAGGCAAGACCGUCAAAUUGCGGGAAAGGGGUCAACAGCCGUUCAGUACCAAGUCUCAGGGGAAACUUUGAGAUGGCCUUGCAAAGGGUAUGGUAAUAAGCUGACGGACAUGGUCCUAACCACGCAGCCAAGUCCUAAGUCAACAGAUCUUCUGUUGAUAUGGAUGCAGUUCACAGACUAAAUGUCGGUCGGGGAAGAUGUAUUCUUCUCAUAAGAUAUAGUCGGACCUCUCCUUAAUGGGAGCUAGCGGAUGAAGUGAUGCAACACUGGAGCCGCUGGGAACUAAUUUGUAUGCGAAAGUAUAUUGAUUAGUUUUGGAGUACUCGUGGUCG; conditions: 30 °C;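 also: selection with 25 µg/mL kanamycin versus none on LB agar overnight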
property-name: self-splicing fitness (ln)

Consider the reported self-splicing fitness (ln) for these sequences:
{"columns": ["sequence", "self-splicing fitness (ln)"],
 "data": [
  ["UAGAAGCAAUAUUACGAUUC", -2.82],
  ["CAACAGCAAUAUUACGCAUG", -2.41],
  ["UCCAAGCAAUAUUACGAGGG", -3.08]
]}

Please give self-splicing fitness (ln), item by item, for the list that follows.
1. CAUUAGCAAUAUUACGGAAG
2. GUAUAGCAAUAUUACGAUUG
3. UGGAAGCAAUAUUACGAAGU
4. UAAUAGCAAUAUUACGCCUC
5. GCUGAGCAAUAUUACGAGGG

Output:
-0.396
-3.48
-3.57
-2.77
-2.71

Please give self-splicing fitness (ln), item by item, for the list that follows.
1. AACUAGCAAUAUUACGUAGG
2. ACAUAGCAAUAUUACGUGCC
3. AAUGAGCAAUAUUACGGUGG
4. CUUCAGCAAUAUUACGCUUG

Output:
1: -2.36; 2: -2.1; 3: -3.48; 4: -2.94

Please give self-splicing fitness (ln), item by item, for the list that follows.
1. CUGCAGCAAUAUUACGCUGU
2. GCGGAGCAAUAUUACGCGAU
3. GCACAGCAAUAUUACGUCAU

Output:
[-1.87, -2.58, -1.89]

Task: Suppose we examine the sequence "GACCAGCAAUAUUACGUUUG" ; what self-splicing fitness (ln) value has been reported?
Output: -2.55

###

assay: self-splicing fitness, log relative to wild type (ln ratio); higher = more splicing; Tetrahymena group I intron in knt gene, E. coli kanamycin selection, DiMSum; sequences stand for … in CUCUCU…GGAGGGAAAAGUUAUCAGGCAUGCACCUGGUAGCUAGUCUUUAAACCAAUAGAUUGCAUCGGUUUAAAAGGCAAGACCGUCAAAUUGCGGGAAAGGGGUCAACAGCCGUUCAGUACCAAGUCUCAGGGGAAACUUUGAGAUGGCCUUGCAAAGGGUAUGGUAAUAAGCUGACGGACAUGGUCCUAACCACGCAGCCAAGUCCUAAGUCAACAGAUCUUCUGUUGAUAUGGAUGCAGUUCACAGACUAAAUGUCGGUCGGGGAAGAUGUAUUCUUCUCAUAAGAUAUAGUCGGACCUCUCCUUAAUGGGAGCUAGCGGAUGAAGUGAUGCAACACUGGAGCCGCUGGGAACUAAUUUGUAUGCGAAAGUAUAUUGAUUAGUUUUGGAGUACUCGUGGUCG; conditions: 37 °C
Kindly supply the reported self-splicing fitness (ln) values for the records listed here.
One number for each entry.

{"columns": ["sequence", "self-splicing fitness (ln)"],
 "data": [
  ["ACGGAGCAAUAUUACGAAUG", -0.307],
  ["AAACAGCAAUAUUACGGGGC", -3.51],
  ["GUGAAGCAAUAUUACGAGUG", -0.702],
  ["GCUAAGCAAUAUUACGCCCC", -0.52],
  ["UGUGAGCAAUAUUACGUGCU", -3.41],
  ["CAUCAGCAAUAUUACGCACA", -1.21]
]}

Please give self-splicing fitness (ln), item by item, for the list that follows.
1. GGCGAGCAAUAUUACGGCUA
2. AUGGAGCAAUAUUACGGGGG

Output:
[0.287, -2.21]
